- MEASUREMENT_NOTES: Inhibition of Met-mediated tumorigenesis in HGF-stimulated human HepG2 cells assessed as impairment in anchorage-independent growth by soft agar growth assay
pIC50: −log10 of the molar value.
READOUT_KIND: pIC50

>  <SMILES_STRING>
O=C(Cc1cc(C(F)(F)F)cc(C(F)(F)F)c1)N[C@@H](Cc1ccccc1)C(=O)Nc1ccc(-c2cn3c(n2)sc2ccccc23)cc1

>  <EXPERIMENTAL_VALUE>
6.49

$$$$
>  <SMILES_STRING>
O=C(Cc1cc(C(F)(F)F)cc(C(F)(F)F)c1)N[C@H](Cc1ccccc1)C(=O)Nc1ccc(-c2cn3c(n2)sc2ccccc23)cc1

>  <EXPERIMENTAL_VALUE>
6.21

$$$$
>  <SMILES_STRING>
Cc1[nH]c(/C=C2\C(=O)Nc3ccc(S(=O)(=O)N(C)c4cccc(Cl)c4)cc32)c(C)c1C(=O)N1CCN(C)CC1

>  <EXPERIMENTAL_VALUE>
5.81

$$$$

* * *

- MEASUREMENT_NOTES: Inhibition of TPR-fused MET-mediated mouse BA/F3 cell proliferation after 48 hrs by cell titre blue based spectrophotometry
READOUT_KIND: IC50 (µM)

>  <SMILES_STRING>
O=C(Cc1cc(C(F)(F)F)cc(C(F)(F)F)c1)N[C@@H](Cc1ccccc1)C(=O)Nc1ccc(-c2cn3c(n2)sc2ccccc23)cc1

>  <UNIT_TAG>
µM

>  <EXPERIMENTAL_VALUE>
4

$$$$
